assay: Phase 1 SAD/MAD study in healthy subjects; assay type: in vivo, human; settings: human, in vivo, oral, 3 g, steady state, 6 days, 3 g q 12 h (total 6 g/day)
Attribute Measured: Tmax (min)
// return numeric value only (unit: min, not printed)

// query GET /values?readout=Tmax&item= OC[C@@H](O)[C@@H](O)[C@@H](O)CO [ribitol, (2R,3s,4S)-Pentane-1,2,3,4,5-pentol]
// result 30.1

----------
assay: Single intravenous dose PK; type: in vivo, Bama minipig; settings: Bama, minipig, plasma; IV 100 mg/kg, female; read-out: Vss
Attribute Measured: Vd (L/kg)
// return numeric value only (unit: L/kg, not printed)

// query GET /values?readout=Vd&item= OC[C@@H](O)[C@@H](O)[C@@H](O)CO
// result 0.434

Data provenance is patent US20230364118A1.
